Readings of melting point for the listed compounds

Solved entries (count: 8):
{"columns": ["COMPOUND", "melting point"],
 "data": [
  ["OCc1ccccc1NCc1cc2c(cc1O)CCO2", "149 to 150 °C"],
  ["Cc1sc2c(c1C)C(=O)NS2(=O)=O", "187 °C"],
  ["N#Cc1[nH]n(-c2ccccc2)c(=O)c1N=Nc1cc(S(=O)(=O)Cl)ccc1Cl", "115 to 120 °C"],
  ["COc1ccc(N2CCN(CC(O)COc3ccc(OCc4ccccc4)cc3)CC2)c(OC)c1 (stereo unspecified)", "110 to 112 °C"],
  ["CC(C)(C)OC(=O)Nc1cc(OC(C)(C)C)c(C#Cc2ccc(F)cc2)cc1[N+](=O)[O-]", "201 °C"],
  ["O=C1N(C/C=C/C=C/c2ccccc2Cl)CCN1c1cccnc1", "130 to 133 °C"],
  ["N#Cc1cc(C(F)(F)F)n(Cc2ccccc2)c1-c1ccc(Cl)cc1", "104 to 106 °C"],
  ["Cc1c(-c2cccc(O)c2)sc(C#N)c1-c1ccc(O)cc1", "240 to 241 °C"]
]}

Q. Tell me the measured melting point of Cc1cccc(NS(=O)(=O)c2ccc(N3CCNC3=O)cc2)c1 , please.
A. 188 to 190 °C

Q. Tell me the measured melting point of COC(=O)C1=C(C)Nc2nc(N)nc(N)c2C1c1ccccc1F (stereo unspecified) , please.
A. 208 °C

Q. Tell me the measured melting point of CN1C(=O)CC[C@]2(C)c3ccc(-c4cc(C(C)(C)C)c(O)c(C(C)(C)C)c4)cc3CC[C@@H]12 , please.
A. > 265 °C
